Source listed as paper PMC9727182.

# Experiment Description: Multicomponent pharmacokinetics in rat plasma after i.v. safflower injection (SI)
# Experimental Conditions: male, Sprague-Dawley, rat, plasma, iv, 4 ml/kg
Quantity Name: Vd (L/kg)

{"Compound": "O=C(O)[C@H]1O[C@@H](Oc2cc3oc(-c4ccc(O)cc4)cc(=O)c3c(O)c2O)[C@H](O)[C@@H](O)[C@@H]1O", "Quantity Name": "Vd", "Recorded Result": 0.03}
{"Compound": "O=C(O)/C=C/c1ccc(O)cc1", "Quantity Name": "Vd", "Recorded Result": 0.14}
{"Compound": "C[C@@H]1O[C@@H](OC[C@H]2O[C@@H](Oc3c(-c4ccc(O)c(O)c4)oc4cc(O)cc(O)c4c3=O)[C@H](O)[C@@H](O)[C@@H]2O)[C@H](O)[C@H](O)[C@H]1O", "Quantity Name": "Vd", "Recorded Result": 0.3}
{"Compound": "O=Cc1ccc(O)cc1 [p-HBA, p-hydroxybenzaldehyde]", "Quantity Name": "Vd", "Recorded Result": 0.34}

----------
# Experiment Description: Multicomponent pharmacokinetics in rat plasma after i.v. safflower injection (SI)
# Experimental Conditions: male, Sprague-Dawley, rat, plasma, iv, 2 ml/kg
The entries below are paired with their reported AUC(0-inf).

{"Compound": "O=C(O)[C@H]1O[C@@H](Oc2cc3oc(-c4ccc(O)cc4)cc(=O)c3c(O)c2O)[C@H](O)[C@@H](O)[C@@H]1O [SCU, scutellarin]", "AUC(0-inf), ng·h/mL": 105}
{"Compound": "O=C(O)/C=C/c1ccc(O)cc1 [p-CA, p-coumaric acid]", "AUC(0-inf), ng·h/mL": 277}
{"Compound": "O=Cc1ccc(O)cc1 [p-HBA, p-hydroxybenzaldehyde]", "AUC(0-inf), ng·h/mL": 23.4}

----------
# Experiment Description: Multicomponent pharmacokinetics in rat plasma after i.v. safflower injection (SI)
# Experimental Conditions: male, Sprague-Dawley, rat, plasma, iv, 4 ml/kg
Quantity Name: half-life (min)

{"Compound": "O=C(O)[C@H]1O[C@@H](Oc2cc3oc(-c4ccc(O)cc4)cc(=O)c3c(O)c2O)[C@H](O)[C@@H](O)[C@@H]1O", "Recorded Result": 170}
{"Compound": "O=C(O)/C=C/c1ccc(O)cc1", "Recorded Result": 12.6}
{"Compound": "C[C@@H]1O[C@@H](OC[C@H]2O[C@@H](Oc3c(-c4ccc(O)c(O)c4)oc4cc(O)cc(O)c4c3=O)[C@H](O)[C@@H](O)[C@@H]2O)[C@H](O)[C@H](O)[C@H]1O", "Recorded Result": 14.4}
{"Compound": "O=Cc1ccc(O)cc1 [p-HBA, p-hydroxybenzaldehyde]", "Recorded Result": 23.4}

----------
# Experiment Description: Multicomponent pharmacokinetics in rat plasma after i.v. safflower injection (SI)
# Experimental Conditions: male, Sprague-Dawley, rat, in vivo, iv, 1 ml/kg
Quantity Name: clearance (mL/min/kg)

{"Smiles Repr": "COc1cc(/C=C/CO)cc(OC)c1O[C@@H]1O[C@H](CO)[C@@H](O)[C@H](O)[C@H]1O", "Uom": "mL/min/kg", "Recorded Result": 11.5}

----------
# Experiment Description: Multicomponent pharmacokinetics in rat plasma after i.v. safflower injection (SI)
# Experimental Conditions: male, Sprague-Dawley, rat, plasma, iv, 1 ml/kg

{"Smiles Repr": "O=C(O)/C=C/c1ccc(O)cc1", "clearance, mL/min/kg": 20.2}
